Answer each item with its documented ΔSHE(Ts), hydrophobic-effect contribution to the entropy change upon binding.
Target: hCK2α (Homo sapiens, UniProt P68400)
Construct: made in house
Sequence (P68400 whole entry): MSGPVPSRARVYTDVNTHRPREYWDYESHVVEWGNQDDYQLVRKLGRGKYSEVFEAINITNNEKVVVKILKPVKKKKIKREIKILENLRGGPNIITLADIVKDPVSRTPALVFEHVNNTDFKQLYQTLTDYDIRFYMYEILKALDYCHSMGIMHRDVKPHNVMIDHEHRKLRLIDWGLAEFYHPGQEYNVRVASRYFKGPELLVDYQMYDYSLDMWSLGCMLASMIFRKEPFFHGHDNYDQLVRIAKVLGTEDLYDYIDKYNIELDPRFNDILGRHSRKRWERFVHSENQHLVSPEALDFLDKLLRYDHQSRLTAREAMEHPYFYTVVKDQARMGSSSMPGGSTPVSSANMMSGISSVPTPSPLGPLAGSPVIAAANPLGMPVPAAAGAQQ
Assay: Isothermal titration calorimetry (MicroCal iTC200), reverse titration
Assay type: binding
Conditions: ≈ 1.35∙ΔCp,bind∙ln(Ts/386)
Note: a bare number is incomplete; add the unit.

Example entries and their recorded answers appear below.
Answer with the recorded ΔSHE(Ts), hydrophobic-effect contribution to the entropy change upon binding for the compound listed here: Brc1cc(Br)c2n[nH]nc2c1 [4,6-Br2Bt] 148 ± 20 J∙mol-1∙K-1

Specify ΔSHE(Ts), hydrophobic-effect contribution to the entropy change upon binding for Brc1cc2[nH]nnc2c(Br)c1Br [4,5,6-Br3Bt] and stop. 295 ± 30 J∙mol-1∙K-1

Please indicate ΔSHE(Ts), hydrophobic-effect contribution to the entropy change upon binding recorded for Brc1cc2nn[nH]c2cc1Br [5,6-Br2Bt, 5,6-bromobenzotriazole] 291 ± 34 J∙mol-1∙K-1

Give ΔSHE(Ts), hydrophobic-effect contribution to the entropy change upon binding for the following compound: Brc1ccc2[nH]nnc2c1Br [4,5-Br2Bt] 148 ± 17 J∙mol-1∙K-1

Read off the recorded ΔSHE(Ts), hydrophobic-effect contribution to the entropy change upon binding for Brc1cc(Br)c2[nH]nnc2c1Br [4,5,7-Br3Bt] 184 ± 16 J∙mol-1∙K-1

Now turn to the next compound.
Look up and report measured ΔSHE(Ts), hydrophobic-effect contribution to the entropy change upon binding for this entry: Brc1ccc2n[nH]nc2c1 [5-BrBt] 120 ± 56 J∙mol-1∙K-1
